The reported numbers originate from paper PMC7946963.

# reported Kd; entries follow
# Target System: 1 (UniProt Q9H0R8 1-117)
# Sequence (Q9H0R8 whole entry): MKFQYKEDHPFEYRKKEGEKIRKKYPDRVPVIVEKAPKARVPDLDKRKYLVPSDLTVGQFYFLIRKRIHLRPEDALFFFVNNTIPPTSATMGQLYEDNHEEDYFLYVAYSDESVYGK
# Experiment: FP
Square brackets hold non-standard residues; d marks the D form. Ends that are not written are not given here. pS = N[C@@H](COP(=O)(O)O)C(=O)O
Give the number; µM is assumed, so skip it.

TASDDSDIVTLEPPK (also: N-terminal FITC only in fluorescence polarisation assay form) [CCPG1 FIR2 synthetic peptide (residues 99–113)]    37.3

With those in mind, consider the next binder.
Consider the binder TASDD[pS]DIVTLEPPK (also: N-terminal FITC in fluorescence polarisation assay only) [phospho-CCPG1 FIR2 synthetic peptide (p-CCPG1 FIR2)] and give its measured Kd.
15.3
